# test_protocol: PBS Stability Assay
# Assay type: physicochemical
# measurement_setup: buffer, pH 7.4, 2 μM, phosphate buffered saline pH 7.4; read-out: PBS T½
# half-life at 2 μM listing for each entry below
Write the answer as a number in min, unit excluded.

Below: 5 compounds and their reported half-life at 2 μM.
# compound, unit_name, half-life at 2 μM
data = [
    ("COC(=O)N[C@H](C(=O)N[C@@H](Cc1ccc(C#Cc2cnc(N3CC4CCC(C3)N4C3COC3)nc2)cc1)[C@H](CN(Cc1c(F)cc(-c2ccn(C(F)F)n2)cc1F)NC(=O)[C@@H](NC(=O)OC)C(C)(C)C(F)(F)F)OC(=O)CC(C)(C)c1c(CC(=O)N[C@@H](Cc2c[nH]c3ccccc23)C(=O)O)cc(C)cc1OP(=O)(O)O)C(C)(C)C(F)(F)F", "min", 285),
    ("COC(=O)N[C@H](C(=O)N[C@@H](Cc1ccc(C#Cc2cnc(N3CC4CCC(C3)N4C3COC3)nc2)cc1)[C@H](CN(Cc1c(F)cc(-c2ccn(C(F)F)n2)cc1F)NC(=O)[C@@H](NC(=O)OC)C(C)(C)C(F)(F)F)OC(=O)CC(C)(C)c1c(CC(=O)N[C@H]2C[C@@H](C(=O)O)C2)cc(C)cc1OP(=O)(O)O)C(C)(C)C(F)(F)F", "min", 467),
    ("COC(=O)N[C@H](C(=O)N[C@@H](Cc1ccc(C#Cc2cnc(N3CC4CCC(C3)N4C3COC3)nc2)cc1)[C@H](CN(Cc1c(F)cc(-c2ccn(C(F)F)n2)cc1F)NC(=O)[C@@H](NC(=O)OC)C(C)(C)C(F)(F)F)OC(=O)CC(C)(C)c1c(CC(=O)O)cc(C)cc1OP(=O)(O)O)C(C)(C)C(F)(F)F", "min", 566),
    ("COC(=O)N[C@H](C(=O)N[C@@H](Cc1ccc(C#Cc2cnc(N3CC4CCC(C3)N4C3COC3)nc2)cc1)[C@H](CN(Cc1c(F)cc(-c2ccn(C(F)F)n2)cc1F)NC(=O)[C@@H](NC(=O)OC)C(C)(C)C(F)(F)F)OC(=O)OCOC(=O)CC(C)(C)c1c(CC(=O)N[C@@H](CCC(N)=O)C(=O)O)cc(C)cc1OP(=O)(O)O)C(C)(C)C(F)(F)F", "min", 325),
    ("COC(=O)N[C@H](C(=O)N[C@@H](Cc1ccc(C#Cc2cnc(N3CC4CCC(C3)N4C3COC3)nc2)cc1)[C@H](CN(Cc1c(F)cc(-c2ccn(C(F)F)n2)cc1F)NC(=O)[C@@H](NC(=O)OC)C(C)(C)C(F)(F)F)OC(=O)OC(C)OC(=O)CC(C)(C)c1c(CC(=O)O)cc(C)cc1OP(=O)(O)O)C(C)(C)C(F)(F)F (stereo in doubt)", "min", 506),
]

GET /values?readout=half-life at 2 μM&item= `COC(=O)N[C@H](C(=O)N[C@@H](Cc1ccc(C#Cc2cnc(N3CC4CCC(C3)N4C3COC3)nc2)cc1)[C@H](CN(Cc1c(F)cc(-c2ccn(C(F)F)n2)cc1F)NC(=O)[C@@H](NC(=O)OC)C(C)(C)C(F)(F)F)OC(=O)CC(C)(C)c1c(CC(=O)Nc2cccc(C(=O)O)c2)cc(C)cc1OP(=O)(O)O)C(C)(C)C(F)(F)F`
334

GET /values?readout=half-life at 2 μM&item= `COC(=O)N[C@H](C(=O)N[C@@H](Cc1ccc(C#Cc2cnc(N3CC4CCC(C3)N4C3COC3)nc2)cc1)[C@H](CN(Cc1c(F)cc(-c2ccn(C(F)F)n2)cc1F)NC(=O)[C@@H](NC(=O)OC)C(C)(C)C(F)(F)F)OC(=O)OCOC(=O)CC(C)(C)c1c(CC(=O)N[C@@H](CCC(=O)O)C(=O)O)cc(C)cc1OP(=O)(O)O)C(C)(C)C(F)(F)F`
316

GET /values?readout=half-life at 2 μM&item= `COC(=O)N[C@H](C(=O)N[C@@H](Cc1ccc(C#Cc2cnc(N3CC4CCC(C3)N4C3COC3)nc2)cc1)[C@H](CN(Cc1c(F)cc(-c2ccn(C(F)F)n2)cc1F)NC(=O)[C@@H](NC(=O)OC)C(C)(C)C(F)(F)F)OC(=O)CC(C)(C)c1c(CC(=O)N[C@@H](CC(N)=O)C(=O)O)cc(C)cc1OP(=O)(O)O)C(C)(C)C(F)(F)F`
318

GET /values?readout=half-life at 2 μM&item= `COC(=O)N[C@H](C(=O)N[C@@H](Cc1ccc(C#Cc2cnc(N3CC4CCC(C3)N4C3COC3)nc2)cc1)[C@H](CN(Cc1c(F)cc(-c2ccn(C(F)F)n2)cc1F)NC(=O)[C@@H](NC(=O)OC)C(C)(C)C(F)(F)F)OC(=O)CC(C)(C)c1c(CC(=O)NCCCC(=O)O)cc(C)cc1OP(=O)(O)O)C(C)(C)C(F)(F)F`
390

GET /values?readout=half-life at 2 μM&item= `COC(=O)N[C@H](C(=O)N[C@@H](Cc1ccc(C#Cc2cnc(N3CC4CCC(C3)N4C3COC3)nc2)cc1)[C@H](CN(Cc1c(F)cc(-c2ccn(C(F)F)n2)cc1F)NC(=O)[C@@H](NC(=O)OC)C(C)(C)C(F)(F)F)OC(=O)CC(C)(C)c1c(CC(=O)N[C@@H](CCC(=O)O)C(=O)O)cc(C)cc1OP(=O)(O)O)C(C)(C)C(F)(F)F`
291

GET /values?readout=half-life at 2 μM&item= COC(=O)N[C@H](C(=O)N[C@@H](Cc1ccc(C#Cc2cnc(N3CC4CCC(C3)N4C3COC3)nc2)cc1)[C@H](CN(Cc1c(F)cc(-c2ccn(C(F)F)n2)cc1F)NC(=O)[C@@H](NC(=O)OC)C(C)(C)C(F)(F)F)OC(=O)CC(C)(C)c1c(CC(=O)NC(CCP(=O)(O)O)C(=O)O)cc(C)cc1OP(=O)(O)O)C(C)(C)C(F)(F)F (stereo partly drawn)
196

GET /values?readout=half-life at 2 μM&item= `COC(=O)N[C@H](C(=O)N[C@@H](Cc1ccc(C#Cc2cnc(N3CC4CCC(C3)N4C3COC3)nc2)cc1)[C@H](CN(Cc1c(F)cc(-c2ccn(C(F)F)n2)cc1F)NC(=O)[C@@H](NC(=O)OC)C(C)(C)C(F)(F)F)OC(=O)CC(C)(C)c1c(CC(=O)NC23CC(C(=O)O)(C2)C3)cc(C)cc1OP(=O)(O)O)C(C)(C)C(F)(F)F`
310

====

# test_protocol: Intestinal S9 Assay (dog GI S9)
# Assay type: in vitro ADME
# measurement_setup: dog, 1.0 mg/mL S9 protein, TRIS pH 7.4, read-out: Dog GI S9 T½
quantity_name: half-life at 2 μM (h)
Write the answer as a number in h, unit excluded.

# smiles_structure, unit_name, half-life at 2 μM
rows = [
    ("COC(=O)N[C@H](C(=O)N[C@@H](Cc1ccc(C#Cc2cnc(N3CC4CCC(C3)N4C3COC3)nc2)cc1)[C@H](CN(Cc1c(F)cc(-c2ccn(C(F)F)n2)cc1F)NC(=O)[C@@H](NC(=O)OC)C(C)(C)C(F)(F)F)OC(=O)CC(C)(C)c1c(CC(=O)NC2(C(=O)O)CCOCC2)cc(C)cc1OP(=O)(O)O)C(C)(C)C(F)(F)F", "h", 3.71),
]

Please look at the following compound next.
GET /values?readout=half-life at 2 μM&item= `COC(=O)N[C@H](C(=O)N[C@@H](Cc1ccc(C#Cc2cnc(N3CC4CCC(C3)N4C3COC3)nc2)cc1)[C@H](CN(Cc1c(F)cc(-c2ccn(C(F)F)n2)cc1F)NC(=O)[C@@H](NC(=O)OC)C(C)(C)C(F)(F)F)OC(=O)CC(C)(C)c1c(CC(=O)N2CCC[C@@H]2C(=O)O)cc(C)cc1OP(=O)(O)O)C(C)(C)C(F)(F)F`
1.64

====

# solubility at 2 h listing for each entry below
# test_protocol: Solubility in FaSSIF
# measurement_setup: 23 °C, pH 6.5, fassif, thermodynamic from solid
Write the answer as a number in µg/mL, unit excluded.

# smiles_structure, solubility at 2 h (µg/mL)
data = [
    ("COC(=O)N[C@H](C(=O)N[C@@H](Cc1ccc(C#Cc2cnc(N3CC4CCC(C3)N4C3COC3)nc2)cc1)[C@H](CN(Cc1c(F)cc(-c2ccn(C(F)F)n2)cc1F)NC(=O)[C@@H](NC(=O)OC)C(C)(C)C(F)(F)F)OC(=O)CC(C)(C)c1c(CC(=O)N2[C@@H](C)CC[C@H]2C(=O)O)cc(C)cc1OP(=O)(O)O)C(C)(C)C(F)(F)F", 3080),
    ("COC(=O)N[C@H](C(=O)N[C@@H](Cc1ccc(C#Cc2cnc(N3CC4CCC(C3)N4C3COC3)nc2)cc1)[C@H](CN(Cc1c(F)cc(-c2ccn(C(F)F)n2)cc1F)NC(=O)[C@@H](NC(=O)OC)C(C)(C)C(F)(F)F)OC(=O)CC(C)(C)c1c(CC(=O)N(CC(=O)O)CC(=O)O)cc(C)cc1OP(=O)(O)O)C(C)(C)C(F)(F)F", 3920),
]

Please look at the following compound next.
GET /values?readout=solubility at 2 h&item= `COC(=O)N[C@H](C(=O)N[C@@H](Cc1ccc(C#Cc2cnc(N3CC4CCC(C3)N4C3COC3)nc2)cc1)[C@H](CN(Cc1c(F)cc(-c2ccn(C(F)F)n2)cc1F)NC(=O)[C@@H](NC(=O)OC)C(C)(C)C(F)(F)F)OC(=O)CC(C)(C)c1c(CC(=O)N2CC[C@H](C(=O)O)C2)cc(C)cc1OP(=O)(O)O)C(C)(C)C(F)(F)F`
2230
